Biological target: c-KIT (Homo sapiens, UniProt P10721)
Construct: 0.02% BSA and 25 nM c-KIT
Sequence (P10721 26-976): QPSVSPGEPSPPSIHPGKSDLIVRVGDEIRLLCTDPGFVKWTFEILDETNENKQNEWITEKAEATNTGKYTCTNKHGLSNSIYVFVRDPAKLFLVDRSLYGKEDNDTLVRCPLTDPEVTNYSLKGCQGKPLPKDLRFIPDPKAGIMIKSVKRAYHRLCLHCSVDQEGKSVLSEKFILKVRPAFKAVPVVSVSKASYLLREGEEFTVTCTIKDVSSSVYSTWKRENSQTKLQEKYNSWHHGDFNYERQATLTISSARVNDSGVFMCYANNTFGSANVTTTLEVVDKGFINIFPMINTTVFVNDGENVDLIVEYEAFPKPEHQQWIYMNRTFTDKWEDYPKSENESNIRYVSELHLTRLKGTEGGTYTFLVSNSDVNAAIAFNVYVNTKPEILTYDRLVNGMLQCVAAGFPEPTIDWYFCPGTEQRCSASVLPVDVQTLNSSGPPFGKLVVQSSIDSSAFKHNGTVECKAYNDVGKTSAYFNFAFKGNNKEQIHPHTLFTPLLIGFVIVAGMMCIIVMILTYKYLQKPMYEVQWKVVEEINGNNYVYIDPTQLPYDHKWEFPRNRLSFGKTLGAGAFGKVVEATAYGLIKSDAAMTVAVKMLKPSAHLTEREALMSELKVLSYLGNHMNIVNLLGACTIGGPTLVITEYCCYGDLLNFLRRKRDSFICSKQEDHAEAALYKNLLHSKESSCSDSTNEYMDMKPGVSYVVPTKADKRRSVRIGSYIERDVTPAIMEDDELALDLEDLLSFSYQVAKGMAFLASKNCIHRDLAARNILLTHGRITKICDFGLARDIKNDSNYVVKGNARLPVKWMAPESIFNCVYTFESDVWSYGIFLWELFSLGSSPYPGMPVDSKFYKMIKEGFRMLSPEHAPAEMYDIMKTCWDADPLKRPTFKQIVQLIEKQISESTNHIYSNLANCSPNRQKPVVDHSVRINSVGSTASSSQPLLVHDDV
Assay: Inhibition of c-KIT, radiometric filter-binding assay
Format: biochemical
Conditions: 700 μM ATP, 0.5 mg/mL pE4Y, room temperature
pKi: −log10 of the molar value.
Entries and their pKi values follow.

CN1CCN(c2ccc(-c3cnc4[nH]cc(-c5oncc5-c5cccc(F)c5F)c4c3)cn2)CC1 [Compound 71]
> 6.70
COc1cnc2[nH]cc(-c3nncn3-c3cccc(F)c3F)c2c1 [Compound 108]
6.00 to 6.70
Fc1cccc(-c2cnoc2-c2c[nH]c3ncc(-c4ccc(CN5CCOCC5)cc4)cc23)c1F [Compound 92]
> 6.70
CN1CCN(Cc2ccc(-c3cnc4[nH]cc(-c5oncc5-c5cccc(F)c5F)c4c3)cc2)CC1 [Compound 94]
> 6.70

Problem: Notebook: pull reported pKi for c-KIT (Homo sapiens, UniProt P10721), entry Cc1noc(-c2c[nH]c3ncc(-c4ccc(N5CCN(C)CC5)cc4)cc23)c1-c1cccc(F)c1F [Compound 135]
Solution: > 6.70

Problem: Notebook: pull reported pKi for c-KIT (Homo sapiens, UniProt P10721), entry Fc1cccc(-c2cnoc2-c2c[nH]c3ncc(-c4cnc5[nH]ccc5c4)cc23)c1F [Compound 77]
Solution: > 6.70

Problem: Notebook: pull reported pKi for c-KIT (Homo sapiens, UniProt P10721), entry Fc1cccc(-n2cnnc2-c2c[nH]c3ncc(-c4ccc(CN5CCOCC5)cc4)cc23)c1F [Compound 109]
Solution: > 6.70

Problem: Notebook: pull reported pKi for c-KIT (Homo sapiens, UniProt P10721), entry Fc1cccc(-n2cnnc2-c2c[nH]c3ncc(-c4ccc(N5CCC(N6CCCC6)CC5)nc4)cc23)c1F [Compound 123]
Solution: 6.00 to 6.70
